target: Mitogen-activated protein kinase (Plasmodium falciparum, UniProt Q25917); test: Final concentrations were 1 uM ATP, 0.5 mM DTT, 1 mM MgCl2, 0.5 mg/mL BSA, and 10 ug/ml MAP2 in a buffer of 50 mM HEPES (pH 7.0). 0.5 mg/mL histone III-S served as the substrate (13); 100 uM AMP-PNP, an ATP analog, was used as a control inhibitor. Incubation time was 4 hours.
Sequence (Q25917 whole entry): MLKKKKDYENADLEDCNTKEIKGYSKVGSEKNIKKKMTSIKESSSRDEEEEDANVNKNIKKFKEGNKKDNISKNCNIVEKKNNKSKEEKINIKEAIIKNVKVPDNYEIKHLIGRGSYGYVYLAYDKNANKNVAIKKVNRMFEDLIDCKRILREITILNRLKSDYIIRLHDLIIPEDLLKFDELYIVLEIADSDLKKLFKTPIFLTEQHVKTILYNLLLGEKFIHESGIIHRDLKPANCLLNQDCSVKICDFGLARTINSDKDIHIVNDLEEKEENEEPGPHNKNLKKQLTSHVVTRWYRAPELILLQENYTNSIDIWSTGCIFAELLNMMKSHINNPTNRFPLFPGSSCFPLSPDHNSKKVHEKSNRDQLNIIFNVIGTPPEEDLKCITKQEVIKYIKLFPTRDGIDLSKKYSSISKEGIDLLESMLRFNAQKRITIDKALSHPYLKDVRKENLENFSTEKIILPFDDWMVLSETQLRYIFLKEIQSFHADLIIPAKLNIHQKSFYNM
pIC50: −log10 of the molar value.
Task for the reader: assign each of the following compounds its reported pIC50.

Examples with their reported pIC50 follow.
compound: COc1ccc(C=C2SC(Nc3ccc(F)cc3)=NC2=O)c(OC)c1
assayed target: Mitogen-activated protein kinase (Plasmodium falciparum, UniProt Q25917)
result: < 6.00

compound: O=C(NC(c1ccccc1)c1ccc2cccnc2c1O)c1ccccc1 (configuration not stated)
assayed target: Mitogen-activated protein kinase (Plasmodium falciparum, UniProt Q25917)
result: < 6.00

compound: Cc1ccccc1OCCSc1nc2ccc(NC(=O)c3cccs3)cc2s1
assayed target: Mitogen-activated protein kinase (Plasmodium falciparum, UniProt Q25917)
result: < 6.00

compound: C=C(C)CCC(C)N1CCC(N2CCC(C(=O)NCCc3ccccc3)CC2)CC1 (configuration not stated)
assayed target: Mitogen-activated protein kinase (Plasmodium falciparum, UniProt Q25917)
result: < 6.00

compound: COc1ccc(N2CCN(C(CNC(=O)C3CCCCC3)c3ccc4c(c3)OCO4)CC2)cc1 (configuration not stated)
assayed target: Mitogen-activated protein kinase (Plasmodium falciparum, UniProt Q25917)
result: < 6.00

compound: COc1ccc(C2=C(c3ccc(OC)cc3)C3(c4ccccc4)C(=O)C2(c2ccccc2)C2C(=O)N(c4ccc(C)cc4)C(=O)C23)cc1 (configuration not stated)
assayed target: Mitogen-activated protein kinase (Plasmodium falciparum, UniProt Q25917)
result: < 6.00

compound: CN(C)c1ccc(N2C(N)=NC(N)=NC2(C)C)cc1
assayed target: Mitogen-activated protein kinase (Plasmodium falciparum, UniProt Q25917)
result: < 6.00

compound: CCN(CC)c1ccc(NC(=O)c2cccs2)cc1
assayed target: Mitogen-activated protein kinase (Plasmodium falciparum, UniProt Q25917)
result: < 6.00

compound: COc1ccc(C(=O)C(CCC(CNC(C)(C)C)C(=O)c2ccc(OC)cc2)CNC(C)(C)C)cc1 (configuration not stated)
assayed target: Mitogen-activated protein kinase (Plasmodium falciparum, UniProt Q25917)
result: < 6.00

compound: CC(C)(C)c1ccc(C(=O)Nc2c3c(nn2-c2cccc(Cl)c2)CSC3)cc1
assayed target: Mitogen-activated protein kinase (Plasmodium falciparum, UniProt Q25917)
result: < 6.00

Hey, quick one: what's pIC50 for each of these?
1. CNCCCNc1ccnc2cc(Cl)ccc12
2. O=C(CCl)NCCOc1ccc(Cl)cc1Cl
3. CCC(c1ccccc1)c1nn2c(-c3cccs3)nnc2s1 (configuration not stated)
4. COc1cc2c(cc1OC)C1=NNC(=O)C1=NC(C)(C)C2
5. Cc1cc(N(C)C)nc(Nc2ccc(NC(=O)Nc3ccccc3)cc2)n1
6. COc1ccc(/C=C2/SC(=Nc3ccccc3)NC2=O)cc1

1: < 6.00; 2: < 6.00; 3: < 6.00; 4: < 6.00; 5: < 6.00; 6: < 6.00

For every item below, please supply its pIC50.
1. CCOc1ccc(CN2CCN(CC(O)COc3ccc(OCC(O)CN4CCN(Cc5ccc(OCC)cc5)CC4)cc3)CC2)cc1 (configuration not stated)
2. O=C(NCc1ccco1)C1CCN(S(=O)(=O)c2ccc(Cl)cc2)CC1
3. CCOc1cc2c(cc1OCC)C(c1cc(Cl)c(O)c(OCC)c1)NCC2 (configuration not stated)
4. CCOC(=O)C1CCN(C(=O)CN2C(=O)c3ccccc3C2c2c[nH]c3ccccc23)CC1 (configuration not stated)
5. COc1ccc2nc(C)cc(Nc3cccc(O)c3)c2c1
6. CCOc1cc(Cl)c(C(C)NC(=O)c2cccc(OC)c2)cc1OCC (configuration not stated)

["< 6.00", "< 6.00", "< 6.00", "< 6.00", "< 6.00", "< 6.00"]
